system: Mus musculus; test: Anticonvulsant activity in mouse assessed as protection against subcutaneous pentylenetetrazole-induced seizures at 300 mg/kg, ip after 0.5 hrs; type: functional, organism-based; design: dose 300 mg/kg
The source made the active and inactive calls. The calls are words filed in the database; no cut-off is given here.
Outcome codes: class 1 (active), class 0 (inactive)

O=C(NC(=S)Nc1ccccc1)Nc1ccc2c(c1)C(=O)C(=O)N2Cc1ccccc1Cl    class 1
O=C(NC(=S)Nc1ccccc1Cl)Nc1ccc2c(c1)C(=O)C(=O)N2Cc1ccccc1    class 0
O=C(NC(=S)Nc1ccccc1Cl)Nc1ccc2c(c1)C(=O)C(=O)N2Cc1ccccc1Cl    class 0
Cc1cccc(NC(=S)NC(=O)Nc2ccc3c(c2)C(=O)C(=O)N3Cc2ccccc2Cl)c1    class 0
O=C(NC(=S)Nc1ccccc1)Nc1ccc2c(c1)C(=O)C(=O)N2Cc1ccccc1    class 0
COc1ccc(NC(=S)NC(=O)Nc2ccc3c(c2)C(=O)C(=O)N3Cc2ccccc2Cl)cc1    class 0
Cc1cccc(NC(=S)NC(=O)Nc2ccc3c(c2)C(=O)C(=O)N3Cc2ccccc2)c1    class 0
COc1cccc(NC(=S)NC(=O)Nc2ccc3c(c2)C(=O)C(=O)N3Cc2ccccc2Cl)c1    class 0
Cc1ccccc1NC(=S)NC(=O)Nc1ccc2c(c1)C(=O)C(=O)N2Cc1ccccc1    class 0

----------
experiment: Octanol-phosphate buffer partition coefficient, log P of the compound; assay type: physicochemical
Each entry below carries its recorded logP.
measured.attribute: logP

COc1ccccc1NC(=S)NC(=O)Nc1ccc2c(c1)C(=O)C(=O)N2Cc1ccccc1Cl    3.18
COc1cccc(NC(=S)NC(=O)Nc2ccc3c(c2)C(=O)C(=O)N3Cc2ccccc2)c1    2.4
COc1ccc(NC(=S)NC(=O)Nc2ccc3c(c2)C(=O)C(=O)N3Cc2ccccc2Cl)cc1    3.24
COc1ccc(NC(=S)NC(=O)Nc2ccc3c(c2)C(=O)C(=O)N3Cc2ccccc2)cc1    2.39
O=C(NC(=S)Nc1ccccc1Cl)Nc1ccc2c(c1)C(=O)C(=O)N2Cc1ccccc1Cl    3.98
Cc1ccc(NC(=S)NC(=O)Nc2ccc3c(c2)C(=O)C(=O)N3Cc2ccccc2)cc1    2.96
Cc1cccc(NC(=S)NC(=O)Nc2ccc3c(c2)C(=O)C(=O)N3Cc2ccccc2)c1    2.92
O=C(NC(=S)Nc1ccccc1Cl)Nc1ccc2c(c1)C(=O)C(=O)N2Cc1ccccc1    3.01
Cc1ccc(NC(=S)NC(=O)Nc2ccc3c(c2)C(=O)C(=O)N3Cc2ccccc2Cl)cc1    3.73
Cc1cccc(NC(=S)NC(=O)Nc2ccc3c(c2)C(=O)C(=O)N3Cc2ccccc2Cl)c1    3.72
Cc1ccccc1NC(=S)NC(=O)Nc1ccc2c(c1)C(=O)C(=O)N2Cc1ccccc1    2.98
COc1cccc(NC(=S)NC(=O)Nc2ccc3c(c2)C(=O)C(=O)N3Cc2ccccc2Cl)c1    3.19
O=C(NC(=S)Nc1ccccc1)Nc1ccc2c(c1)C(=O)C(=O)N2Cc1ccccc1    2.48
COc1ccccc1NC(=S)NC(=O)Nc1ccc2c(c1)C(=O)C(=O)N2Cc1ccccc1    2.38
O=C(NC(=S)Nc1ccccc1)Nc1ccc2c(c1)C(=O)C(=O)N2Cc1ccccc1Cl    3.18
Cc1ccccc1NC(=S)NC(=O)Nc1ccc2c(c1)C(=O)C(=O)N2Cc1ccccc1Cl    3.7

----------
tested on: Mus musculus; assay: Anticonvulsant activity in mouse assessed as protection against subcutaneous pentylenetetrazole-induced seizures at 300 mg/kg, ip after 0.5 hrs; type: functional, organism-based; design: dose 300 mg/kg
Active and inactive are the calls of the source. The rule behind the calls is not given here.
Outcome codes: Y for active, N for inactive

COc1ccccc1NC(=S)NC(=O)Nc1ccc2c(c1)C(=O)C(=O)N2Cc1ccccc1Cl    N
Cc1ccc(NC(=S)NC(=O)Nc2ccc3c(c2)C(=O)C(=O)N3Cc2ccccc2)cc1    N
COc1ccccc1NC(=S)NC(=O)Nc1ccc2c(c1)C(=O)C(=O)N2Cc1ccccc1    N
COc1cccc(NC(=S)NC(=O)Nc2ccc3c(c2)C(=O)C(=O)N3Cc2ccccc2)c1    N
COc1ccc(NC(=S)NC(=O)Nc2ccc3c(c2)C(=O)C(=O)N3Cc2ccccc2)cc1    Y
Cc1ccc(NC(=S)NC(=O)Nc2ccc3c(c2)C(=O)C(=O)N3Cc2ccccc2Cl)cc1    N
Cc1ccccc1NC(=S)NC(=O)Nc1ccc2c(c1)C(=O)C(=O)N2Cc1ccccc1Cl    N
